target: human recombinant A2AAR (Homo sapiens); experiment: Radioligand binding assay, displacement of [3H]NECA in CHO cell membranes; conditions: mean ± S.E., n = 3-5, read-out: hA2AR (Ki nM)
Sequence (P29274 whole entry): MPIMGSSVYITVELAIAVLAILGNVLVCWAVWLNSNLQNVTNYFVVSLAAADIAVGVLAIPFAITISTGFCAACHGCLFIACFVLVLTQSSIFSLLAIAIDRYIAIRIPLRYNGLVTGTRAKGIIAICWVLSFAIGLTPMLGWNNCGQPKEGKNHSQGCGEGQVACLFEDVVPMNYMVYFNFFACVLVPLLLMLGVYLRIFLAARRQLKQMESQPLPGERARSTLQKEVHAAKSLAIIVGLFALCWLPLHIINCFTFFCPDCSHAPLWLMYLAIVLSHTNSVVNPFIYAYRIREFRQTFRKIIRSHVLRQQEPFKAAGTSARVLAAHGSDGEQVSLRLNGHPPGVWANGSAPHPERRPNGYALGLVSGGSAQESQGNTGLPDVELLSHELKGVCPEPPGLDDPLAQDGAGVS
Property measured: log10 of Ki (log10 of the value in nM)
Scale: decimal log of Ki, Ki in nM.

Inquiry: Quick check: log10 of Ki of CCCCC#Cc1nc(NCCc2ccccc2)c2ncn([C@@H]3O[C@H](CO)[C@@H](O)[C@H]3O)c2n1 ?
Reply text: 2.16

Inquiry: Would you mind telling me what log10 of Ki value was observed for OC[C@H]1O[C@@H](n2cnc3c(NCCc4ccccc4)nc(SCCc4ccccc4)nc32)[C@H](O)[C@@H]1O ?
Reply text: 3.53

Inquiry: Given the entry OC[C@H]1O[C@@H](n2cnc3c(NCC(c4ccccc4)c4ccccc4)nc(I)nc32)[C@H](O)[C@@H]1O , report its measured log10 of Ki.
Reply text: 3.09

Inquiry: Look up log10 of Ki: OC[C@H]1O[C@@H](n2cnc3c(NCCc4ccccc4)nc(I)nc32)[C@H](O)[C@@H]1O
Reply text: 3.61

Inquiry: GET /values?readout=log10 of Ki&item= OC[C@H]1O[C@@H](n2cnc3c(NCCc4ccccc4)nc(Cl)nc32)[C@H](O)[C@@H]1O
Reply text: 2.82

Inquiry: I would be grateful if you could share the reported log10 of Ki for OC[C@H]1O[C@@H](n2cnc3c(NCC(c4ccccc4)c4ccccc4)nc(Cl)nc32)[C@H](O)[C@@H]1O .
Reply text: 2.42

Inquiry: Give its log10 of Ki value. Item: OC[C@H]1O[C@@H](n2cnc3c(NCC(c4ccccc4)c4ccccc4)nc(C#Cc4ccccc4)nc32)[C@H](O)[C@@H]1O
Reply text: 2.65

Inquiry: Would you mind telling me what log10 of Ki value was observed for OC[C@H]1O[C@@H](n2cnc3c(NCCc4ccccc4)nc(C#Cc4ccccc4)nc32)[C@H](O)[C@@H]1O ?
Reply text: 3.47

* * *

biological target: human A3AR (Homo sapiens, UniProt P0DMS8); test: GloSensor cAMP accumulation assay (agonism/antagonism) at A3AR in CHO cells
Sequence (P0DMS8 whole entry): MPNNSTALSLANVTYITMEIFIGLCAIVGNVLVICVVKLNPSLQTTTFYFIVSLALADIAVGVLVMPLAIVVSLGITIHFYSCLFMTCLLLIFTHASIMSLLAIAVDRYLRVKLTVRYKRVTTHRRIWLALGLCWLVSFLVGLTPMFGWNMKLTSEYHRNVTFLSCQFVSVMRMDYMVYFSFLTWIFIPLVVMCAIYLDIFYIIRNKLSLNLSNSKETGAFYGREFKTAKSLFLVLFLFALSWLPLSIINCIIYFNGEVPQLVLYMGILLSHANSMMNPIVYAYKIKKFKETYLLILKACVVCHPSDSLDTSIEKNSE
Property measured: EC50 (µM)
Form entry: value (µM) — number only.

Inquiry: Please look up its EC50: OC[C@H]1O[C@@H](n2cnc3c(NCCc4ccccc4)nc(Cl)nc32)[C@H](O)[C@@H]1O
Reply text: 0.014

* * *

target: human A3AR (Homo sapiens, UniProt P0DMS8); experiment: Radioligand binding assay, displacement of [3H]HEMADO in CHO cell membranes; details: A3AR selectivity vs A2AAR, ratio of Ki values
Property measured: A2A/A3 (fold)
Return type: number; implicit unit fold.

Inquiry: So what's the measured A2A/A3 for this one? CCCCC#Cc1nc(NCCc2ccccc2)c2ncn([C@@H]3O[C@H](CO)[C@@H](O)[C@H]3O)c2n1
Reply text: 97

Inquiry: So what does the record say about A2A/A3 for CCCCC#Cc1nc(NCC(c2ccccc2)c2ccccc2)c2ncn([C@@H]3O[C@H](CO)[C@@H](O)[C@H]3O)c2n1 ?
Reply text: 6

Inquiry: Tell me the measured A2A/A3 of OC[C@H]1O[C@@H](n2cnc3c(NCCc4ccccc4)nc(C#Cc4ccccc4)nc32)[C@H](O)[C@@H]1O , please.
Reply text: 785

Inquiry: Requested field: A2A/A3. Item: OC[C@H]1O[C@@H](n2cnc3c(NCCc4ccccc4)nc(I)nc32)[C@H](O)[C@@H]1O
Reply text: 824

Inquiry: What measured A2A/A3 goes with OC[C@H]1O[C@@H](n2cnc3c(NCC(c4ccccc4)c4ccccc4)nc(Cl)nc32)[C@H](O)[C@@H]1O ?
Reply text: 2046

Inquiry: Dear colleague, I am looking for the recorded A2A/A3 of the following compound: OC[C@H]1O[C@@H](n2cnc3c(NCCc4ccccc4)nc(SCCc4ccccc4)nc32)[C@H](O)[C@@H]1O
Reply text: 112

Inquiry: Query: A2A/A3; subject: OC[C@H]1O[C@@H](n2cnc3c(NCC(c4ccccc4)c4ccccc4)nc(C#Cc4ccccc4)nc32)[C@H](O)[C@@H]1O
Reply text: 4

Inquiry: I'd like to know its A2A/A3. The compound in question is OC[C@H]1O[C@@H](n2cnc3c(NCCc4ccccc4)nc(NCCc4ccccc4)nc32)[C@H](O)[C@@H]1O
Reply text: 4145

Inquiry: Form field: reported A2A/A3 of OC[C@H]1O[C@@H](n2cnc3c(NCC(c4ccccc4)c4ccccc4)nc(I)nc32)[C@H](O)[C@@H]1O
Reply text: 113

* * *

target: human A3AR (Homo sapiens, UniProt P0DMS8); assay: GloSensor cAMP accumulation assay (agonism/antagonism) at A3AR in CHO cells; format: cell-based; set-up: expressed in transfected cells; host or cells: CHO cells stably expressing A3AR and the GloSensor biosensor plasmid; details: antagonism: counteracting agonist (NECA 1 μM) induced decrease of cAMP, forskolin 10 μM, mean ± S.E.
Assign IC50 to each entry below.
Express the result in nM but write the number alone.

Inquiry: Need IC50, item OC[C@H]1O[C@@H](n2cnc3c(NCCc4ccccc4)nc(C#Cc4ccccc4)nc32)[C@H](O)[C@@H]1O
Reply text: 79

Inquiry: Query: IC50; subject: CCCCC#Cc1nc(NCC(c2ccccc2)c2ccccc2)c2ncn([C@@H]3O[C@H](CO)[C@@H](O)[C@H]3O)c2n1
Reply text: 380

Inquiry: Given CCCCC#Cc1nc(NCCc2ccccc2)c2ncn([C@@H]3O[C@H](CO)[C@@H](O)[C@H]3O)c2n1 , state its recorded IC50.
Reply text: 31

Inquiry: Would you kindly share the measured IC50 for OC[C@H]1O[C@@H](n2cnc3c(NCC(c4ccccc4)c4ccccc4)nc(C#Cc4ccccc4)nc32)[C@H](O)[C@@H]1O ?
Reply text: 153

* * *

biological target: human A3AR (Homo sapiens, UniProt P0DMS8); assay: Radioligand binding assay, displacement of [3H]HEMADO in CHO cell membranes; settings: A3AR selectivity vs A1AR, ratio of Ki values
Assign A1/A3 to each entry below.
All answers are understood in fold, so give the number only.

Inquiry: Query: A1/A3; subject: OC[C@H]1O[C@@H](n2cnc3c(NCC(c4ccccc4)c4ccccc4)nc(C#Cc4ccccc4)nc32)[C@H](O)[C@@H]1O
Reply text: 2

Inquiry: Given the compound OC[C@H]1O[C@@H](n2cnc3c(NCCc4ccccc4)nc(NCCc4ccccc4)nc32)[C@H](O)[C@@H]1O , what is its reported A1/A3?
Reply text: 1082

Inquiry: What does the data say about its A1/A3? Entry: OC[C@H]1O[C@@H](n2cnc3c(NCCc4ccccc4)nc(SCCc4ccccc4)nc32)[C@H](O)[C@@H]1O
Reply text: 9

Inquiry: Requested field: A1/A3. Item: OC[C@H]1O[C@@H](n2cnc3c(NCCc4ccccc4)nc(C#Cc4ccccc4)nc32)[C@H](O)[C@@H]1O
Reply text: 213

Inquiry: Form field: reported A1/A3 of CCCCC#Cc1nc(NCCc2ccccc2)c2ncn([C@@H]3O[C@H](CO)[C@@H](O)[C@H]3O)c2n1
Reply text: 86

Inquiry: Entry CCCCC#Cc1nc(NCC(c2ccccc2)c2ccccc2)c2ncn([C@@H]3O[C@H](CO)[C@@H](O)[C@H]3O)c2n1 : reported A1/A3 = ?
Reply text: 36

Inquiry: Can you share its A1/A3? I mean this compound: OC[C@H]1O[C@@H](n2cnc3c(NCC(c4ccccc4)c4ccccc4)nc(Cl)nc32)[C@H](O)[C@@H]1O
Reply text: 6

Inquiry: Suppose we examine the compound OC[C@H]1O[C@@H](n2cnc3c(NCC(c4ccccc4)c4ccccc4)nc(I)nc32)[C@H](O)[C@@H]1O ; what A1/A3 value has been reported?
Reply text: 17

Inquiry: # get_value(readout='A1/A3', item= OC[C@H]1O[C@@H](n2cnc3c(NCCc4ccccc4)nc(Cl)nc32)[C@H](O)[C@@H]1O )
Reply text: 68

Inquiry: Recorded A1/A3 of OC[C@H]1O[C@@H](n2cnc3c(NCCc4ccccc4)nc(I)nc32)[C@H](O)[C@@H]1O , please.
Reply text: 29
